- Assay text: NCI Yeast Anticancer Drug Screen. Data for the cln2 rad14 strain (AID 165)
- Experimental conditions: S. cerevisiae cln2 rad14 strain, at 50.0 µM (retest, dose inferred, filed as 5.0)
The panel holds about 79,000 compounds, 15% with a hit somewhere; the sample as a whole holds those more often. Calls of active or inactive are those of the source. Cut-off read from the data, not from the text of the source: active = growth inhibition above about 70%; inactive = the rest.
Choose the fitting class; nothing outside active, inactive is accepted.

Some solved cases for reference:
[
  {
    "Compound": "[Br][Hg][CH2]COC[CH2][Hg][Br]",
    "Label class": "active"
  },
  {
    "Compound": "CCC[CH2][Sn]1([CH2]CCC)[O]Cc2nc(C)ccc2[O]1",
    "Label class": "active"
  },
  {
    "Compound": "N.N.N.N.N.N#N.[Cl-].[Os+7]",
    "Label class": "inactive"
  },
  {
    "Compound": "Cc1c(N)nc([C@H](CC(N)=O)NC[C@H](N)C(N)=O)nc1C(=O)N[C@H](C(=O)N[C@H](C)[C@@H](O)CC(=O)N[C@H](C(=O)NC(O[C@@H]1O[C@@H](C)[C@@H](N)[C@@H](O)[C@H]1O)C(O)c1nc(-c2nc(C(=O)NCCCCN)cs2)cs1)[C@@H](C)O)[C@@H](O[C@@H]1O[C@@H](CO)[C@@H](O)[C@H](O)[C@@H]1O[C@H]1O[C@H](CO)[C@@H](O)[C@H](OC(N)=O)[C@@H]1O)c1c[nH]cn1 (some centres undefined)",
    "Label class": "active"
  },
  {
    "Compound": "O=[N+]([O-])c1ccc2c[n+]3ccccc3cc2c1",
    "Label class": "inactive"
  },
  {
    "Compound": "Oc1c(-c2ccccc2)cc(-[n+]2c(-c3ccccc3)cc(-c3ccccc3)cc2-c2ccccc2)cc1-c1ccccc1",
    "Label class": "active"
  },
  {
    "Compound": "CCN(CCCl)c1ccc(/C=C/C2=[N+](C)c3ccccc3C2(C)C)c(C)c1",
    "Label class": "active"
  },
  {
    "Compound": "C[CH2][Sn]([Cl])([CH2]C)[O][Sn]([Cl])([CH2]C)[CH2]C",
    "Label class": "active"
  }
]

[in] Hi team, can someone confirm the assay call for [CH3][Sn]([CH3])([Cl])[c]1cc[c]([Sn]([CH3])([CH3])[Cl])cc1 ?
[out] inactive

[in] Hello, I am checking results. What call was entered for OC1(c2ccccc2)CC2CCC(C1)N2CCCC(O)(c1ccccc1)c1ccccc1 (centres undefined) ?
[out] inactive

[in] What did the test return for [Ni+2].[O-][Cl+3]([O-])([O-])O.c1ccc([PH+](CC[PH+](c2ccccc2)c2ccccc2)c2ccccc2)cc1.c1ccc([PH+](CC[PH+](c2ccccc2)c2ccccc2)c2ccccc2)cc1 ?
[out] inactive

[in] What outcome does the record of this test show for Oc1cccc[c]1[Hg][Cl] ?
[out] active

[in] How was CCC1CC2C3Cc4ccc(OC)c(O)c4C2(CCN3C)CC1=O (centres undefined) classified in this test?
[out] inactive

[in] For CC(=O)OCC1OC([S-])C(OC(C)=O)C(OC(C)=O)C1OC(C)=O.CC[PH+](CC)CC.CC[PH+](CC)CC.[Au].[Au] (centres undefined) , what call appears in the results of this test?
[out] active

[in] Test call for this compound, please: ClCCCCCl
[out] inactive

[in] Assay result, entry Cc1oc2c([N+](=O)[O-])cccc2c1[N+](=O)[O-] — outcome?
[out] active

[in] Would you mind telling me which call this test gave COc1ccc(-c2c(C)c(C(=O)O)nc(-c3ccc4c(O)c(OC)c5c(c4n3)=NC(C)(C)N=5)c2N)c(O)c1OC ?
[out] active

[in] Which result was noted for this compound in the test: CC1=C(CO)C(=O)OC(C(C)C2CCC3C4CC5OC56C(O)C(N5CC5)=CC(=O)C6(C)C4CCC23C)C1 (centres undefined)
[out] inactive

[in] Please indicate how the test categorized [Ni+2].[SH2+]C([SH2+])=Nc1ccccc1.[SH2+]C([SH2+])=Nc1ccccc1.c1ccc(C[P+](c2ccccc2)(c2ccccc2)c2ccccc2)cc1 .
[out] active
